Answer each item with its documented pKd.
molecular target: kinase enzymes (Homo sapiens, UniProt P48736); construct: purchased DiscoveRx Corporation, San Diego (contract service, KINOMEscan); test: Enzyme binding assay (KINOMEscan, DiscoveRx), further kinases of Table A; conditions: PIK3Cγ_h
Sequence (P48736 whole entry): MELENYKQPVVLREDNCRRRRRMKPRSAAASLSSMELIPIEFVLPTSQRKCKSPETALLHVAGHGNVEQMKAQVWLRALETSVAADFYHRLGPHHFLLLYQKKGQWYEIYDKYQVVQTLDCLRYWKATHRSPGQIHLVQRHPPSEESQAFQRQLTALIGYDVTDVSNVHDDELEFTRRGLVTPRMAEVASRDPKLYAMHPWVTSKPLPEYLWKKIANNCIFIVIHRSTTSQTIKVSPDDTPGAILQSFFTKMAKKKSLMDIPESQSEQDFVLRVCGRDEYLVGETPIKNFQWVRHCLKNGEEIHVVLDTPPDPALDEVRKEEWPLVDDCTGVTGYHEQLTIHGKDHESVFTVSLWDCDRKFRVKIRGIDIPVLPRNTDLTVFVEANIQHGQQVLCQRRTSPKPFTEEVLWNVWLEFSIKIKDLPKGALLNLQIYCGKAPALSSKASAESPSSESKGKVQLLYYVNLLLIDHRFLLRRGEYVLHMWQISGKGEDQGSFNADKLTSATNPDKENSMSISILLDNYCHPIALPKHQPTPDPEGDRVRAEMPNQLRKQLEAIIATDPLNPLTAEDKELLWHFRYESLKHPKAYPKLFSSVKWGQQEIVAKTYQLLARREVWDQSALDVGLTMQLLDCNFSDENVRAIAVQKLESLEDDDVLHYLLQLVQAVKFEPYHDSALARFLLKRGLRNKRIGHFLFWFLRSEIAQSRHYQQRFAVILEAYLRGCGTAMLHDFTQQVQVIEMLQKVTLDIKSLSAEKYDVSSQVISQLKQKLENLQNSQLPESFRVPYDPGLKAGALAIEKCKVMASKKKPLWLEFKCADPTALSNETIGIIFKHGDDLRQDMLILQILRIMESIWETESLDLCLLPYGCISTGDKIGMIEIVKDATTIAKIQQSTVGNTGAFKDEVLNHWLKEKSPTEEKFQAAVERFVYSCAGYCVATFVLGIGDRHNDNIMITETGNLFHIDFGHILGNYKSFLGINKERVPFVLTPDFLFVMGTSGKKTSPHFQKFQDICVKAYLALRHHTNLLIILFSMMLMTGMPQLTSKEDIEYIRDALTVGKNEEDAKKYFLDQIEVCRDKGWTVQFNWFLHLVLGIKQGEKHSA
# pKd = -log10(concentration in molar units)

Qu. Request - read-out pKd | tested on kinase enzymes (Homo sapiens, UniProt P48736) | molecule CC(Nc1cc(F)cc(F)c1)c1cc(C(=O)N2CCOCC2)cc2ncc(N3CCOCC3)nc12 (single isomer, unassigned) [Compound 8]
Ans. 5.41

Qu. Please do the same for CN(C)C(=O)c1cc(N2CCC2c2ccc(F)cc2)c2nc(N3CCOCC3)cnc2c1 (stereo not drawn) [Compound 397] as well.
Ans. 4.64

Qu. Please do the same for CC(Nc1cc(F)c(F)c(F)c1)c1cc(C(=O)NC[C@@H](C)O)cc2ncc(N3CCOCC3)nc12 (single isomer, unassigned) [Compound 284a] as well.
Ans. 5.09

Qu. Please do the same for C[C@H](Nc1cccc(F)c1)c1cc(C(=O)NCCO)cc2ncc(N3CCOCC3)nc12 [Compound 118] as well.
Ans. 5.55

Qu. Please do the same for CC(Nc1cc(F)cc(F)c1)c1cc(C(=O)N2CCC(NCC(F)(F)F)C2)cc2ncc(N3CCOCC3)nc12 (stereo not drawn) [Compound 217] as well.
Ans. 4.62

Qu. Please do the same for O=C(c1cc(C2CCCN2c2cc(F)cc(F)c2)c2nc(N3CCOCC3)cnc2c1)N1CC2(C1)CS(=O)(=O)C2 (stereo not drawn) [Compound 34] as well.
Ans. 6.03

Qu. Please do the same for CC(Nc1cc(F)c(F)c(F)c1)c1cc(C(=O)NCC(C)(C)O)cc2ncc(N3CCOCC3)nc12 (single isomer, unassigned) [Compound 292a] as well.
Ans. 4.66

Qu. Please do the same for CNCCN(C)C(=O)c1cc(C(C)Nc2cc(F)cc(F)c2)c2nc(N3CCOCC3)cnc2c1 (single isomer, unassigned) [Compound 152] as well.
Ans. 5.06

Sourced from patent US10526316B2
